# TEST_SYSTEM: guinea pig NK1 receptor (guinea pig, UniProt P30547 1-407)
# Sequence (P30547 whole entry): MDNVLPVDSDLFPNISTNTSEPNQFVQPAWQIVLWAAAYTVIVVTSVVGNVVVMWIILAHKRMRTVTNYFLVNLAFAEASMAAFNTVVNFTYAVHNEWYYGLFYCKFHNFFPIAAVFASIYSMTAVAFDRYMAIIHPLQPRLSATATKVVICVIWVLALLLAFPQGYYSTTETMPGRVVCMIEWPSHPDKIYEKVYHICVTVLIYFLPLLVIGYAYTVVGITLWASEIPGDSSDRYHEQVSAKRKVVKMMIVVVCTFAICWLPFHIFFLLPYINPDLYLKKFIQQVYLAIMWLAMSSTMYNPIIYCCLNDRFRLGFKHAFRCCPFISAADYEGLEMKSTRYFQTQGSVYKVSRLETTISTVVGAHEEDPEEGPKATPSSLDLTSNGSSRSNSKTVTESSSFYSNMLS
# ASSAY_REMARKS: cell-based or functional assay
Square brackets hold non-standard residues; d marks the D form. * marks the point of attachment. OBzl(3,5-(CF3)2) = FC(F)(F)c1cc(CO*)cc(C(F)(F)F)c1; Met(O) = CS(=O)CC[C@H](N)C(=O)O
OBSERVABLE: Substance P GPI antagonist Ke (nM)
Just the number please, in nM, no unit attached.

Ask: Dear colleague, I am looking for the recorded Substance P GPI antagonist Ke of the following binder: H-Y[dA]GF[dF]PLW-{OBzl(3,5-(CF3)2)} (also: TFA salt, TFA salt; also called TY007) [H-Tyr-D-Ala-Gly-Phe-D-Phe-Pro-Leu-Trp-O-3,5-Bzl(CF3)2]
Reply: 69.6

Ask: Dear colleague, I am looking for the recorded Substance P GPI antagonist Ke of the following binder: H-Y[dA]GF[Met(O)]PLW-{OBzl(3,5-(CF3)2)} (also: TFA salt, TFA salt; also called TY023) [H-Tyr-D-Ala-Gly-Phe-Met(O)-Pro-Leu-Trp-O-3,5-Bzl(CF3)2]
Reply: 7.8

Ask: Dear colleague, I am looking for the recorded Substance P GPI antagonist Ke of the following binder: YAGFXPLW (D-Ala at 2; Nle (norleucine, written X) at 5; C-terminal 3,5-bis(trifluoromethyl)benzyl ester, TFA salt; also called TY018) [H-Tyr-D-Ala-Gly-Phe-Nle-Pro-Leu-Trp-O-3,5-Bzl(CF3)2]
Reply: 7.9

Ask: Dear colleague, I am looking for the recorded Substance P GPI antagonist Ke of the following binder: H-Y[dA]GFLPLW-{OBzl(3,5-(CF3)2)} (also: TFA salt, TFA salt; also called TY004) [H-Tyr-D-Ala-Gly-Phe-Leu-Pro-Leu-Trp-O-3,5-Bzl(CF3)2]
Reply: 19.4

Ask: Dear colleague, I am looking for the recorded Substance P GPI antagonist Ke of the following binder: H-Y[dA]GFFPLW-{OBzl(3,5-(CF3)2)} (also: TFA salt, TFA salt; also called TY003) [H-Tyr-D-Ala-Gly-Phe-Phe-Pro-Leu-Trp-O-3,5-Bzl(CF3)2]
Reply: 14.4

Ask: Dear colleague, I am looking for the recorded Substance P GPI antagonist Ke of the following binder: H-Y[dA]GFMPLW-{OBzl(3,5-(CF3)2)} (also: TFA salt, TFA salt; also called TY005; TY5) [H-Tyr-D-Ala-Gly-Phe-Met-Pro-Leu-Trp-O-3,5-Bzl(CF3)2]
Reply: 24.7

Ask: Dear colleague, I am looking for the recorded Substance P GPI antagonist Ke of the following binder: H-Y[dA]GFGPLW-{OBzl(3,5-(CF3)2)} (also: TFA salt, TFA salt; also called TY006) [H-Tyr-D-Ala-Gly-Phe-Gly-Pro-Leu-Trp-O-3,5-Bzl(CF3)2]
Reply: 5.4
